- Test system: K562 CRISPRi cells
- test name: Constant region variant library pooled growth screen, K562
- Type: cell-based, human
- condition summary: sgRNA constant region variants; activity relative to the original, un-modified constant region cr995
observable: Mean relative activity

cr805 (nucleic acid, listed as DNA, chemistry not fully specified) guide: GTTTAAGAGCTAAGCTGGAAACAGCATAGCAAGTTTAAATAGGGCTAGTCCGTTATCAACTTGATAAAGTGGCACCGAGTCGGTGCT: 0.7927
cr320 (nucleic acid, listed as DNA, chemistry not fully specified) guide: GTTTAAGAGCTAAGCTGGAAACAGCATAGCATGTTTAAATAAGGCTAGTCCGTTATCAACTTGAGAAAGTGGCACCGAGTCGGTGCT: 1.035
cr537 (nucleic acid, listed as DNA, chemistry not fully specified) guide: GTTTAAGAGCTAAGCTGGAAACAGCATAGCAAGCTTAAATTAGGCTAGTCCGTTATCAACTTGAAAAAGTGGCACCGAGTCGGTGCT: 0.005276
cr520 (nucleic acid, listed as DNA, chemistry not fully specified) guide: GTTTAAGAGCTAAGCTGGAAACAGCATAGCAAGTTTAAATAAGGCTAGTCCGATATCAACTTGCAAAAGTGGCACCGAGTCGGTGCT: 0.8874
